System: Streptococcus pneumoniae
Method description: Antibacterial activity against Streptococcus pneumoniae ATCC 49619
Format: functional
Readout label: MIC (µg/mL)
Respond with the bare value in µg/mL.

Record excerpt, results attached:
| Compound | Reading |
| --- | --- |
| COc1ccc2nccc(-n3cc4c(n3)CCC(NC(=O)c3ccc5c(c3)NC(=O)CS5)C4)c2n1 (stereo unspecified) | 4 |
| COc1ccc2nccc(-n3cc4c(n3)CCC(NCc3ccc5c(c3)NC(=O)CS5)C4)c2c1 (stereo unspecified) | 2 |
| COc1ccc2nccc(-n3cc4c(n3)CCC(NCc3ccc5c(c3)OCCO5)C4)c2c1 (stereo unspecified) | 1 |
| COc1ccc2nccc(-n3cc4c(n3)CCC(NC(=O)/C=C/c3ccccc3)C4)c2c1 (stereo unspecified) | 4 |
| COc1ccc2nccc(-n3cc4c(n3)CCC(NC(=O)c3c(F)cc5c(c3F)NC(=O)CS5)C4)c2c1 (stereo unspecified) | 1 |
| COc1ccc2nccc(-n3cc4c(n3)CCC(NC(=O)c3ccc5c(c3)NC(=O)CO5)C4)c2c1 (stereo unspecified) | 4 |
| COc1ccc2nccc(-n3cc4c(n3)CCC(NC(=O)c3cc5c(cc3C(F)(F)F)SCC(=O)N5)C4)c2c1 (stereo unspecified) | 8 |
| COc1ccc2nccc(-n3cc4c(n3)CCC(NC(=O)c3ccc5c(c3)NC(=O)CO5)C4)c2n1 (stereo unspecified) | 8 |

Fill in the recorded MIC for this compound, with Streptococcus pneumoniae as test system: COc1ccc2nccc(-n3cc4c(n3)CCC(NC(=O)c3ccc(C)c([N+](=O)[O-])c3)C4)c2n1 (stereo unspecified)
8

Fill in the recorded MIC for this compound, with Streptococcus pneumoniae as test system: COc1ccc2nccc(-n3cc4c(n3)CCC(NC(=O)c3ccc5c(c3)OCCO5)C4)c2c1 (stereo unspecified)
8

Fill in the recorded MIC for this compound, with Streptococcus pneumoniae as test system: COc1ccc2nccc(-n3cc4c(n3)CCC(NC(=O)c3cc5c(cc3Cl)SCC(=O)N5)C4)c2c1 (stereo unspecified)
2

Fill in the recorded MIC for this compound, with Streptococcus pneumoniae as test system: COc1ccc2nccc(-n3cc4c(n3)CCC(NC(=O)c3ccc(C)c([N+](=O)[O-])c3)C4)c2c1 (stereo unspecified)
4

----------
Tested on: Staphylococcus aureus
Method description: Antibacterial activity against quinolone susceptible methicillin resistant Staphylococcus aureus OC2878
Type: functional
Note to self: MIC under 0.2 µg/mL means MET, ties and anything higher get NOT MET.

| Molecule | Cat |
| --- | --- |
| C[C@@H]1CN(c2c(F)c(N)c3c(=O)c(C(=O)O)cn(C4CC4)c3c2F)C[C@H](C)N1 | MET |

Is MIC of COc1ccc2nccc(-n3cc4c(n3)CCC(NC(=O)c3ccc5c(c3)NC(=O)CS5)C4)c2n1 (configuration not stated) strictly below 0.2 µg/mL?
MET

Is MIC of COc1ccc2nccc(-n3cc4c(n3)CCC(NC/C=C/c3ccccc3)C4)c2n1 (configuration not stated) strictly below 0.2 µg/mL?
MET

Is MIC of COc1ccc2nccc(-n3cc4c(n3)CCC(NCc3ccc5c(c3)OCCO5)C4)c2c1 (configuration not stated) strictly below 0.2 µg/mL?
NOT MET

Is MIC of COc1ccc2nccc(-n3cc4c(n3)CCC(NC(=O)c3cc5c(cc3F)SCC(=O)N5)C4)c2c1 (configuration not stated) strictly below 0.2 µg/mL?
MET

Is MIC of COc1ccc2nccc(-n3cc4c(n3)CCC(NCc3ccc5c(c3)NC(=O)CS5)C4)c2n1 (configuration not stated) strictly below 0.2 µg/mL?
NOT MET
